Hey, just so you know, these numbers are from paper PMC11024012.

EXPERIMENTAL_TARGET: Aurora A kinase (Homo sapiens)
Sequence (O14965 whole entry): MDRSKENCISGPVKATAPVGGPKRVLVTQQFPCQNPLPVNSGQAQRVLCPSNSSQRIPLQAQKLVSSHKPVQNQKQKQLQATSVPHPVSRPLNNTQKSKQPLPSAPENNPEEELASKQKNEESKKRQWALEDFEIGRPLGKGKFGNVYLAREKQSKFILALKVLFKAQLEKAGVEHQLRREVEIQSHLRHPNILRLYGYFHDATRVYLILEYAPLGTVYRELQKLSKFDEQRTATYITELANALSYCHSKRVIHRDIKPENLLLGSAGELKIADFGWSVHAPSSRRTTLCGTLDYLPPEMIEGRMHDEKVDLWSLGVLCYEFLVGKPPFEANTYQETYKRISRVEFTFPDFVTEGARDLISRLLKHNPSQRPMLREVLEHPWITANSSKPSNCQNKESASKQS
ASSAY_SUMMARY: Aurora A kinase inhibition assay (HTRF kinase assay / Z′-LYTE Kinase Assay Kit ser/thr 01 peptide)
Type: biochemical
CONDITIONS_USED: 32 μM compound; read-out: Aurora A Kinase Percent block at 32 μM
Overview of recorded inhibition at 32 µM for various compounds

{"COMPOUND": "Cc1ccc(N/N=C2/C(=O)Nc3ccc(NC(=O)Cc4ccc(Cl)cc4)cc32)cc1", "inhibition at 32 µM, %": 54.2}
{"COMPOUND": "CC1(C)COC2(OC1)C(=O)Nc1ccc(NC(=O)c3ccc(Cl)cc3)cc12", "inhibition at 32 µM, %": 17.8}
{"COMPOUND": "CC1(C)COC2(OC1)C(=O)Nc1ccc(NC(=O)Cc3ccc(Cl)cc3)cc12", "inhibition at 32 µM, %": 20.9}
{"COMPOUND": "CC(=O)Nc1ccc2c(c1)/C(=N\\Nc1ccc(Cl)cc1Cl)C(=O)N2", "inhibition at 32 µM, %": 26.4}
{"COMPOUND": "CC(=O)Nc1ccc2c(c1)/C(=N\\Nc1ccc(C)cc1)C(=O)N2", "inhibition at 32 µM, %": 82.7}
{"COMPOUND": "O=C(CCN1CCOCC1)Nc1ccc2c(c1)/C(=N\\Nc1ccc(Cl)cc1Cl)C(=O)N2", "inhibition at 32 µM, %": 10.3}
{"COMPOUND": "CCS(=O)(=O)Nc1ccc2c(c1)/C(=C(/Nc1ccc(CN3CCCCC3)cc1)c1ccccc1)C(=O)N2 [Hesperadin, reference compound]", "inhibition at 32 µM, %": 93.8}
{"COMPOUND": "O=C1Nc2ccc(NC(=O)c3ccc(Cl)cc3)cc2/C1=N\\Nc1ccc(C(F)(F)F)cc1", "inhibition at 32 µM, %": 19.4}

* * *

EXPERIMENTAL_TARGET: Aurora A kinase (Homo sapiens)
READOUT_TYPE: IC50

{"COMPOUND": "CCS(=O)(=O)Nc1ccc2c(c1)/C(=C(/Nc1ccc(CN3CCCCC3)cc1)c1ccccc1)C(=O)N2 [Hesperadin, reference compound]", "READOUT_TYPE": "IC50", "MEASURED": "0.0053 µM"}
{"COMPOUND": "Cc1ccc(N/N=C2/C(=O)Nc3ccc(NC(=O)Cc4ccc(Cl)cc4)cc32)cc1", "READOUT_TYPE": "IC50", "MEASURED": "22.8 µM"}
{"COMPOUND": "O=C1Nc2ccc(NC(=O)c3ccc(Cl)cc3)cc2/C1=N\\Nc1ccncc1", "READOUT_TYPE": "IC50", "MEASURED": "3.1 µM"}
{"COMPOUND": "CC(=O)Nc1ccc2c(c1)/C(=N\\Nc1ccc(C)cc1)C(=O)N2", "READOUT_TYPE": "IC50", "MEASURED": "0.8 µM"}
{"COMPOUND": "O=C(CCN1CCOCC1)Nc1ccc2c(c1)/C(=N\\Nc1ccc(C(F)(F)F)cc1)C(=O)N2", "READOUT_TYPE": "IC50", "MEASURED": "4.8 µM"}
{"COMPOUND": "CC(=O)Nc1ccc2c(c1)/C(=N\\Nc1ccncc1)C(=O)N2", "READOUT_TYPE": "IC50", "MEASURED": "5.5 µM"}
{"COMPOUND": "O=C(Cc1ccc(Cl)cc1)Nc1ccc2c(c1)/C(=N\\Nc1ccc(C(F)(F)F)cc1)C(=O)N2", "READOUT_TYPE": "IC50", "MEASURED": "1.8 µM"}
